These entries and their values trace back to ChEMBL document CHEMBL4002618.

Would you kindly list Activity for each of these compounds?
# Test system: Erythrocyte
# method.summary: Anticomplement activity in sheep erythrocytes assessed as concentration required for 50% hemolytic inhibition by classic pathway preincubated for 10 mins with guinea pig serum followed by erythrocyte addition measured after 30 mins by spectrophotometer
# Type: functional, Ovis aries
Please give a number only; it is taken to be in mg/mL.

Query: Consider the compound shown here: "CC1=C2[C@H](O)C[C@]3(C)[C@H]([C@@H]4O[C@@H]4[C@]45OC(=O)[C@@]6(CCC(C)(C)C[C@H]64)CC[C@]53C)[C@@]2(C)C=C(O)C1=O" What is its recorded Activity?
Result: 0.38

Query: For the compound shown here, "CC1(C)CC[C@]2(C(=O)O)CC[C@]3(COC(=O)/C=C/c4ccc(O)cc4)C(=CC[C@@H]4[C@@]5(C)CC[C@H](OC(=O)/C=C/c6ccc(O)cc6)C(C)(C)[C@@H]5CC[C@]43C)[C@@H]2C1" , give the reported Activity.
Result: 0.072

Query: Look up Activity for this compound: "CC1=C2[C@H](O)C[C@]3(C)[C@H]([C@@H]4O[C@@H]4[C@]45OC(=O)[C@@]6(CC[C@@H](C)[C@H](C)[C@H]64)CC[C@]53C)[C@@]2(C)C=C(O)C1=O"
Result: 0.505

Query: For "CC(=O)O[C@H]1CC[C@]2(C)[C@H]3CC=C4[C@@H]5[C@@H](C)[C@H](C)CC[C@]5(CO)CC[C@@]4(C)[C@]3(C)CC[C@H]2C1(C)C" , what is its reported Activity?
Result: 0.46

Query: What value of measured Activity is listed for "COC(=O)[C@]12CC[C@@H](C)[C@@](C)(O)[C@H]1C1=CC[C@@H]3[C@@]4(C)CC[C@H](O)C(C)(C)[C@@H]4CC[C@@]3(C)[C@]1(COC(=O)/C=C/c1ccc(O)c(OC)c1)CC2" ?
Result: 0.131

###

Kindly supply the reported Activity values for the records listed here.
# Tested on: Erythrocyte
# method.summary: Anticomplement activity in sheep erythrocytes assessed as concentration required for 50% hemolytic inhibition by classic pathway preincubated for 10 mins with guinea pig serum followed by erythrocyte addition measured after 30 mins by spectrophotometer
# Assay type: functional, Ovis aries
Field: numeric (mg/mL). Do not append units.

Query: Given the entry "C=C1[C@@H](O)[C@H](O)C[C@]2(C)[C@H]3CC=C4[C@@H]5CC(C)(C)CC[C@]5(C(=O)O)CC[C@@]4(C)[C@]3(C)CC[C@@H]12" , report its measured Activity.
Result: 0.09

Query: Sample "C=C1[C@@H](O)[C@H](O)C[C@]2(C)[C@H]3CC=C4[C@@H]5[C@@H](C)[C@H](C)CC[C@]5(C(=O)O)CC[C@@]4(C)[C@]3(C)CC[C@@H]12" — what was its Activity?
Result: 0.123

Query: Using the record for "C=C1CC[C@@]23CC[C@]4(C)[C@@](OC2=O)([C@@H]3[C@H]1C)[C@H]1O[C@H]1[C@@H]1[C@@]2(C)C=C(O)C(=O)C(C)=C2[C@H](O)C[C@]14C" , report its Activity.
Result: 0.236

Query: Requested field: Activity. Item: "C=C1[C@@H](O)[C@H](O)C[C@]2(C)[C@H]3[C@@H]4O[C@@H]4[C@]45OC(=O)[C@@]6(CC[C@@H](C)[C@H](C)[C@H]64)CC[C@@]5(C)[C@]3(C)CC[C@@H]12"
Result: 0.429

Query: Suppose we examine the compound "C[C@H]1[C@H](C)CC[C@]2(C(=O)O)CC[C@]3(C)C(=CC[C@@H]4[C@@]5(C)CC[C@H](O)[C@@](C)(CO)[C@@H]5CC[C@]43C)[C@H]12" ; what Activity value has been reported?
Result: 0.161
